Value source: patent US20230134571A1

Target: HIV Env of isolate ZM53M.PB12 (clade C) (HIV)
Assay: cell-based or functional assay
Value Type: IC50 (µg/ml) with constrains (µg/mL)
Answers are plain numbers, in µg/mL.

Query string: GET /values?readout=IC50 (µg/ml) with constrains&item= PGDM1400 (antibody, V domains shown) VH: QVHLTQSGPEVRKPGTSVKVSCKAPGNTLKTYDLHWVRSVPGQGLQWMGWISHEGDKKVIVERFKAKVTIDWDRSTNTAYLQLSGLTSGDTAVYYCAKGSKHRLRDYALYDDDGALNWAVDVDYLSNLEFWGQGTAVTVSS VL: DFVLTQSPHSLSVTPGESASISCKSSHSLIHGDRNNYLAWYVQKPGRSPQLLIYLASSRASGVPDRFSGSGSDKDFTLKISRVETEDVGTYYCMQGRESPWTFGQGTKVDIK
Result string: 0.009
